measured-on: T1, M3
T1 construct: also called PD1 mutant M3
assay-procedure: scFv-phage ELISA
Listed next: entries and their corresponding OD490.
reported-metric: OD490

{"binder": "PD1-48A9 (antibody, V domains shown, scFv-phage in the screening ELISA; whole IgG in the other assays) VH: QMQLVQSGAEVKKPGSSVKVSCKASGDTFTRYIINWVRQAPGQGLEWMGRVIPTLGLTTYAQNFQDTVTIIADKSTNTAYMELKNLRSEDTAVYYCARGYGSGAFDIWGQGTMITVSS VL: DIVMTQTPLSLPVTPGEPASISCRSSQSLLDSHDGNTYLDWYLQKPGQSPQLLIYTLSHRASGVPDRFSGSGSGTDFTLKISRVEAEDVGLYYCMQRIDFPYTFGQGTKVEIK", "recorded-measurement": 2}
{"binder": "PD1-52E8 (antibody, V domains shown, scFv-phage in the screening ELISA; whole IgG in the other assays) VH: QVQLVQSGGNLVQPGRSLRLSCAASGFTFDDYAMHWVRQAPGKGLEWVSGISWNSGTPGYADSVQGRFTISRDNAKNSLYLQMNSLRAEDTAVYYCARGHNYLDSSYYDYWGQGTLVTVSS VL: SYELTQPLSLSVAPGQTARITCSGDALSKEYSYWYQQKPGQAPVLVMYKDSERPSGIPERFSGSSSGTTVTLTISGVQAEDEADYYCQSVDSSDTSVVFGGGTKLTVL", "recorded-measurement": 1.5}
{"binder": "PD1-45F4 (antibody, V domains shown, scFv-phage in the screening ELISA; later whole IgG) VH: QMQLVESGGGLVQPGRSLRLSCAASGFTFDDYAMHWVRQAPGQGLEWVSGISWNSNNIKYADSVKGRFTISRDNSKNSLYLQMNSLRAEDTAVYYCARGALTPLDVWGQGTPVTVSS VL: SYELTQAPSLSVSPGQTANIICSGDNLRTKYVSWYQQKPGQSPLLVIYQDTRRPSGIPARFSGSNSGNTATLTISGTQTRDESTYYCMTWDVDTTSMIFGGGTKLTVL", "recorded-measurement": 3.7}
{"binder": "PD1-51D9 (antibody, V domains shown, scFv-phage in the screening ELISA; whole IgG in the other assays) VH: QVQLVESGAEVKKPGASVKLSCKASGYTFSSYWMHWVRQAPGQRLEWMGEINPGNGHTNYNEKFKSRVTITVDKSASTAYMELSSLRSEDTAVYYCAREGDGSYWGYFDSWGQGTPITVSS VL: DIVMTQTPLSLPVTPGEPASISCRSSQSLLHSNGNNYLDWYLQKPGQSPQLLIYLGSYRASGVPDRFSGSGSGTDFTLKISRVEAEDVGLYYCMQGLQIPSTFGPGTKVDIK", "recorded-measurement": 0.3}
